Protocol Description: physchem
Condition Parameters: octanol/PBS buffer, pH 7.2
Property Measured: logD at 1 h, 10000 µM
Just the number.

q: Using the record for Cc1nc2cnc3[nH]ccc3c2n1[C@H]1CCCOC1 , report its logD at 1 h, 10000 µM.
a: 1.8

q: And for Cc1nc2cnc3[nH]ccc3c2n1[C@@H]1CCNC[C@H]1F (relative stereo) ?
a: 1.2

q: Item: COC(=O)N[C@H]1CC[C@H](n2c(C)nc3cnc4[nH]ccc4c32)CC1
a: 2

q: Request: Cc1nc2cnc3[nH]ccc3c2n1[C@H]1CC[C@@H](O)CC1
a: 1.4

q: Another compound: Cc1nc2cnc3[nH]ccc3c2n1C1CCN(CCC#N)CC1
a: 1.3

q: Repeat with Cc1nc2cnc3[nH]ccc3c2n1C1CCNCC1
a: 0.1

###

Kindly supply the reported Cmax values for the records listed here.
Protocol Description: in vivo
Condition Parameters: Sprague-Dawley, rat, po, 0.4 mg/kg
Numeric only. Scale: nM

q: Look up Cmax: Cc1nc2cnc3[nH]ccc3c2n1C1CCNCC1
a: 60

q: Thanks! And Cc1nc2cnc3[nH]ccc3c2n1[C@@H]1CCNC[C@H]1F (relative stereo) ?
a: 4500

q: Also need Cc1nc2cnc3[nH]ccc3c2n1[C@H]1CC[C@H](NCCC#N)CC1 , thanks.
a: 150

q: Same read-out for COC(=O)N[C@H]1CC[C@H](n2c(C)nc3cnc4[nH]ccc4c32)CC1 ?
a: 550

###

Protocol Description: in vitro
Condition Parameters: human, hepatocytes
Property Measured: half-life at 1 µM

q: Any idea what its half-life at 1 µM is? The molecule is Cc1nc2cnc3[nH]ccc3c2n1[C@H]1CCCOC1
a: 6.3 h

q: Consider next the molecule Cc1nc2cnc3[nH]ccc3c2n1[C@H]1CC[C@@H](O)CC1 in the same way.
a: > 8 h

q: # iterate: Cc1nc2cnc3[nH]ccc3c2n1[C@H]1CCCNC1
a: > 8 h

q: Param item: Cc1nc2cnc3[nH]ccc3c2n1[C@H]1CC[C@H](NCCC#N)CC1
a: > 8 h

q: For Cc1nc2cnc3[nH]ccc3c2n1[C@@H]1CCNC[C@H]1F (relative stereo) then?
a: 1.8 h

q: Moving on to the next molecule: Cc1nc2cnc3[nH]ccc3c2n1[C@H]1CC[C@H](NS(C)(=O)=O)CC1
a: > 8 h

q: Next molecule up: Cc1nc2cnc3[nH]ccc3c2n1[C@H]1CC[C@H](O)CC1
a: > 8 h

q: Now try COC(=O)N[C@H]1CC[C@H](n2c(C)nc3cnc4[nH]ccc4c32)CC1 .
a: 3.9 h

q: Likewise for Cc1nc2cnc3[nH]ccc3c2n1C1CCN(CCC#N)CC1 ?
a: > 8 h

q: And Cc1nc2cnc3[nH]ccc3c2n1[C@@H]1CCCC[C@H]1O (relative stereo) ?
a: > 8 h

q: Would you kindly repeat that for Cc1nc2cnc3[nH]ccc3c2n1C1CCNCC1 ?
a: > 8 h

###

Protocol Description: AUC in rat at 2 mg/kg, po
Format: ADME, organism-based
Design: dose 2 mg/kg, route oral
Condition Parameters: plasma
Property Measured: AUC (µM·h)
Record the value in µM·h, omitting the unit from your answer.

q: Can you look up the measured AUC of C[C@@H]1CCN(C(=O)CC#N)C[C@@H]1N(C)c1ncnc2[nH]ccc12 for me?
a: 2.1
